Provide the reported AC50 of each item.
MEASUREMENT TARGET: Prostaglandin G/H synthase 1 (Rattus norvegicus); further: assay procedure not described here
Sequence (Q63921 whole entry): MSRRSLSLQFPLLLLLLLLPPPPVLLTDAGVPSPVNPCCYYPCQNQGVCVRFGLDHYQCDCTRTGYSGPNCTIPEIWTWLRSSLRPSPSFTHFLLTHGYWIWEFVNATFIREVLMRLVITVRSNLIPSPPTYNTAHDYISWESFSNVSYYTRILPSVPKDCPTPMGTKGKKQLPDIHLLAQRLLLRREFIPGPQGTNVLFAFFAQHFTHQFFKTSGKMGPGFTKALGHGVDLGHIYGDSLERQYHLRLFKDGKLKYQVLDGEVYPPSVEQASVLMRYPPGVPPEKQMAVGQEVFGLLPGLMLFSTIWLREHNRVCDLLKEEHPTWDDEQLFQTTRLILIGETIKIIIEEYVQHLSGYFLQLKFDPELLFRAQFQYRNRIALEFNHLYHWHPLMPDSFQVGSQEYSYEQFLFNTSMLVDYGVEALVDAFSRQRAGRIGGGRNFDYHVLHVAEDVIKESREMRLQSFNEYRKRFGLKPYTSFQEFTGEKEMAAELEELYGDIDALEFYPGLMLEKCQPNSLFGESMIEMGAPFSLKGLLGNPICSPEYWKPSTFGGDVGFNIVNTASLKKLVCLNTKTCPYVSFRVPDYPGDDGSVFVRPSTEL
Type: functional

{"columns": ["COMPOUND", "AC50"],
 "data": [
  ["CCCCCCCCCCCC[N+](C)(C)CCOc1ccccc1", "> 30 µM"]
]}

Below is a list of compounds. For each, state its recorded AC50.
1. CC(C)[N+](C)(CCC(C(N)=O)(c1ccccc1)c1ccccc1)C(C)C [ISOPROPAMIDE]
2. CC(C)(N)Cc1ccc(Cl)cc1
3. COc1cc(Nc2c(C#N)cnc3cc(OCCCN4CCN(C)CC4)c(OC)cc23)c(Cl)cc1Cl
4. O=C(NC[C@H]1CN(c2ccc(N3CCOCC3=O)cc2)C(=O)O1)c1ccc(Cl)s1

output:
1: > 10 µM; 2: > 30 µM; 3: > 30 µM; 4: > 30 µM

meta.source: ChEMBL document CHEMBL5291721
